molecular target: SIK3 (Homo sapiens); construct: purchased SignalChem S12-11G-100; assay: ADP-Glo kinase assay, SIK3; type: biochemical
Sequence (Q9Y2K2 59-365 limits assumed): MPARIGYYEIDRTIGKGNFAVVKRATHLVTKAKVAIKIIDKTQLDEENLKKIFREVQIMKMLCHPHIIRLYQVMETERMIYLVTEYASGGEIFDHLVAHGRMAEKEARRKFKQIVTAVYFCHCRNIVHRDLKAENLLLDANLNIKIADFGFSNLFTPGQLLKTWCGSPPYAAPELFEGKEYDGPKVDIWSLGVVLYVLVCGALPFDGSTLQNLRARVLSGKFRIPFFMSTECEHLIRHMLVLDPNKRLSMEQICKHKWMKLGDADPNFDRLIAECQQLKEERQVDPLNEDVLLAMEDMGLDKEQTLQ
Measure: IC50

COc1cc(-c2cnc3cc(C(C)(C)OC)ccn23)cc(OC(F)F)c1C(=O)NC1CC1 ... 0.01 to 10 nM
COc1cc(-c2cnc3cc(C(C)(C)N4CCOCC4)ccn23)cc(OC(F)F)c1C(=O)NC1CC1 ... 10 to 100 nM

Form field - read-out: IC50; system: SIK3 (Homo sapiens); submitted item: "COc1cc(-c2cnc3cc(C4CCN(C)CC4)ccn23)cc(OC(F)F)c1C(=O)NC1CC1"
0.01 to 10 nM

What do you get for "COc1cc(-c2cnc3cc(C(C)(C)C#N)ccn23)cc(OC(F)F)c1C(=O)NCC(F)F" ?
0.01 to 10 nM

What do you get for "COc1cc(-c2cnc3cc(C(C)(C)C#N)ccn23)cc(OC(F)F)c1C(=O)N1CC2(COC2)C1" ?
10 to 100 nM

What do you get for "COCCNC(=O)C1(c2ccn3c(-c4cc(OC)c(C(=O)NC5CC5)c(OC(F)F)c4)cnc3c2)CC1" ?
10 to 100 nM

What do you get for COc1cc(-c2cnc3cc(C(C)N4CC5(COC5)C4)ccn23)cc(OC(F)F)c1C(=O)NC1CC1 (stereo not shown) ?
10 to 100 nM
